# tested on: V1-vasopressin receptors (Rattus norvegicus, UniProt P30560)
# Construct: Rat aortic ring tissue; from tissue; host or cells: rat thoracic aorta rings
# Sequence (P30560 whole entry): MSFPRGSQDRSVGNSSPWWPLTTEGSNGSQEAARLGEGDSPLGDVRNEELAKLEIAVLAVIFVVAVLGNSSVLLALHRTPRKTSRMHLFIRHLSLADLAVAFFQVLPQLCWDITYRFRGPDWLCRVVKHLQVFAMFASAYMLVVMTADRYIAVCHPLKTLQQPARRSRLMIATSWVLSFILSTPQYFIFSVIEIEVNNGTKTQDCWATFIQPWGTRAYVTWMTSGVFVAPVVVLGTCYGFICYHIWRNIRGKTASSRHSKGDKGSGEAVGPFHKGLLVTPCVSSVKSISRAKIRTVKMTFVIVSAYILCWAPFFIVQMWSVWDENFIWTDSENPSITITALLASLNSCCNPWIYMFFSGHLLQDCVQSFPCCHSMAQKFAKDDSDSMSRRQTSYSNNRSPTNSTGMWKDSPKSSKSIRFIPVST
# protocol: in vitro protocol using plasma membranes of rat liver
# Format: binding
# assay context: rat liver membrane
Numbered stars: 1 amine (or outer) side, 2 acyl side, 3 side chain; on linkers, the order of the positions; unused ones are H or OH. Bridge positions count the residues as written; N and C are the ends. Peptide text beside a SMILES is read from it. X2 = O=C(CC1(S[*:2])CCCCC1)[*:1]; X1 = CC(C)(CC(=O)[*:1])S[*:2]
reported endpoint: Kb (nM)

[[record]]
molecule = "COc1ccc(C[C@@H]2NC(=O)CC(C)(C)SSC[C@@H](C(=O)N3CCC[C@H]3C(=O)N[C@@H](CCCNC(=N)N)C(=O)NCC(N)=O)NC(=O)[C@H](CC(N)=O)NC(=O)[C@H](CCC(N)=O)NC(=O)[C@H](Cc3ccccc3)NC2=O)cc1 [F] (Y(Me)FQNCPRG-NH2; linker N-5 via X1)"
reported_endpoint = "Kb"
recorded_measurement = 2.9

[[record]]
molecule = "COc1ccc(C[C@@H]2NC(=O)CC(C)(C)SSC[C@@H](C(=O)N[C@@H](CCCNC(=N)N)C(N)=O)NC(=O)[C@H](CC(N)=O)NC(=O)[C@H](CCC(N)=O)NC(=O)[C@H](Cc3ccccc3)NC2=O)cc1 [A] (Y(Me)FQNCR-NH2; linker N-5 via X1)"
reported_endpoint = "Kb"
recorded_measurement = 38

[[record]]
molecule = "COc1ccc(C[C@@H]2NC(=O)CC(C)(C)SSC[C@@H](C(=O)N[C@@H](CCCNC(=N)N)C(=O)NCC(N)=O)NC(=O)[C@H](CC(N)=O)NC(=O)[C@H](CCC(N)=O)NC(=O)[C@H](Cc3ccccc3)NC2=O)cc1 [B] (Y(Me)FQNCRG-NH2; linker N-5 via X1)"
reported_endpoint = "Kb"
recorded_measurement = 37

[[record]]
molecule = "COc1ccc(C[C@@H]2NC(=O)CC3(CCCCC3)SSC[C@@H](C(=O)N3CCC[C@H]3C(=O)N[C@@H](CCCN=C(N)N)C(=O)NCC(N)=O)NC(=O)[C@H](CC(N)=O)NC(=O)[C@H](CCC(N)=O)NC(=O)[C@H](Cc3ccccc3)NC2=O)cc1 [G] (Y(Me)FQNCPRG-NH2; linker N-5 via X2)"
reported_endpoint = "Kb"
recorded_measurement = 0.48


---

Recorded Kb, one value per entry.
# tested on: V2-vasopressin receptors (Sus scrofa)
# Construct: Medullary pig kidney tissue; from tissue; host or cells: pig (hog) kidney medulla
# protocol: inhibition of 3H-LVP binding, medullary pig kidney tissue
Numbered stars: 1 amine (or outer) side, 2 acyl side, 3 side chain; on linkers, the order of the positions; unused ones are H or OH. Bridge positions count the residues as written; N and C are the ends. Square brackets hold non-standard residues; d marks the D form. Peptide text beside a SMILES is read from it. X1 = CC(C)(CC(=O)[*:1])S[*:2]; Mpa = O=C(O)CCS
reported endpoint: Kb (µM)

[[record]]
molecule = "CCOc1ccc(C[C@H]2NC(=O)CC(C)(C)SSC[C@@H](C(=O)N[C@@H](CCCNC(=N)N)C(N)=O)NC(=O)[C@H](CC(N)=O)NC(=O)[C@H](CCC(N)=O)NC(=O)[C@H](Cc3ccccc3)NC2=O)cc1 [C] ([dY](Et)FQNCR-NH2; linker N-5 via X1)"
reported_endpoint = "Kb"
recorded_measurement = 0.35

[[record]]
molecule = "COc1ccc(C[C@@H]2NC(=O)CC(C)(C)SSC[C@@H](C(=O)N[C@@H](CCCNC(=N)N)C(=O)NCC(N)=O)NC(=O)[C@H](CC(N)=O)NC(=O)[C@H](CCC(N)=O)NC(=O)[C@H](Cc3ccccc3)NC2=O)cc1 [B] (Y(Me)FQNCRG-NH2; linker N-5 via X1)"
reported_endpoint = "Kb"
recorded_measurement = 3.3

[[record]]
molecule = "COc1ccc(C[C@@H]2NC(=O)CC(C)(C)SSC[C@@H](C(=O)N[C@@H](CCCNC(=N)N)C(N)=O)NC(=O)[C@H](CC(N)=O)NC(=O)[C@H](CCC(N)=O)NC(=O)[C@H](Cc3ccccc3)NC2=O)cc1 [A] (Y(Me)FQNCR-NH2; linker N-5 via X1)"
reported_endpoint = "Kb"
recorded_measurement = 3

[[record]]
molecule = "CCOc1ccc(C[C@H]2NC(=O)CCSSC[C@@H](C(=O)N[C@@H](CCCNC(=N)N)C(=O)NCC(N)=O)NC(=O)[C@H](CC(N)=O)NC(=O)[C@H]([C@@H](C)O)NC(=O)[C@H]([C@@H](C)CC)NC2=O)cc1 [E] ([Mpa][dY](Et)ITNCRG-NH2; disulfide 1-6)"
reported_endpoint = "Kb"
recorded_measurement = 4.1


---

# tested on: oxytocin receptors (Rattus norvegicus, UniProt P70536)
# Construct: Rat uterus; from tissue; host or cells: isolated rat uterus
# Sequence (P70536 whole entry): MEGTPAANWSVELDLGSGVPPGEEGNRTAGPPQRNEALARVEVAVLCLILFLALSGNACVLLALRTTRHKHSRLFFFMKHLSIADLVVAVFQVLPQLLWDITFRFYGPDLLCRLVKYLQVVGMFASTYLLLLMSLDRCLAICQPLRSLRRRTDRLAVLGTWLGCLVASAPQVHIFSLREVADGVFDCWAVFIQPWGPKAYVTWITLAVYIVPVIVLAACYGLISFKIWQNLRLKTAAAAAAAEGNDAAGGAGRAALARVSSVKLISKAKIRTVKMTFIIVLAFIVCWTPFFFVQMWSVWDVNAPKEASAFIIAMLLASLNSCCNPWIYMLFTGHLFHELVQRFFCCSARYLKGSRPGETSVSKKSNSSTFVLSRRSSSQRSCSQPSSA
# protocol: isolated rat uterus protocol
# Assay type: cell-based
# assay context: read-out: Rat OXT KB
Numbered stars: 1 amine (or outer) side, 2 acyl side, 3 side chain; on linkers, the order of the positions; unused ones are H or OH. Bridge positions count the residues as written; N and C are the ends. Square brackets hold non-standard residues; d marks the D form. Peptide text beside a SMILES is read from it. X1 = CC(C)(CC(=O)[*:1])S[*:2]; Mpa = O=C(O)CCS
Reported Kb by item:
reported endpoint: Kb (nM)

[[record]]
compound = "COc1ccc(C[C@@H]2NC(=O)CC(C)(C)SSC[C@@H](C(=O)N[C@@H](CCCNC(=N)N)C(=O)NCC(N)=O)NC(=O)[C@H](CC(N)=O)NC(=O)[C@H](CCC(N)=O)NC(=O)[C@H](Cc3ccccc3)NC2=O)cc1 [B] (Y(Me)FQNCRG-NH2; linker N-5 via X1)"
reported_endpoint = "Kb"
unit_abbreviation = "nM"
recorded_measurement = 18.9

[[record]]
compound = "CCOc1ccc(C[C@H]2NC(=O)CCSSC[C@@H](C(=O)N[C@@H](CCCNC(=N)N)C(=O)NCC(N)=O)NC(=O)[C@H](CC(N)=O)NC(=O)[C@H]([C@@H](C)O)NC(=O)[C@H]([C@@H](C)CC)NC2=O)cc1 [E] ([Mpa][dY](Et)ITNCRG-NH2; disulfide 1-6)"
reported_endpoint = "Kb"
unit_abbreviation = "nM"
recorded_measurement = 17.7

[[record]]
compound = "CCOc1ccc(C[C@H]2NC(=O)CCSSC[C@@H](C(=O)N[C@@H](CCCNC(=N)N)C(N)=O)NC(=O)[C@H](CC(N)=O)NC(=O)[C@H]([C@@H](C)O)NC(=O)[C@H]([C@@H](C)CC)NC2=O)cc1 [D] ([Mpa][dY](Et)ITNCR-NH2; disulfide 1-6)"
reported_endpoint = "Kb"
unit_abbreviation = "nM"
recorded_measurement = 11.4

[[record]]
compound = "CCOc1ccc(C[C@H]2NC(=O)CC(C)(C)SSC[C@@H](C(=O)N[C@@H](CCCNC(=N)N)C(N)=O)NC(=O)[C@H](CC(N)=O)NC(=O)[C@H](CCC(N)=O)NC(=O)[C@H](Cc3ccccc3)NC2=O)cc1 [C] ([dY](Et)FQNCR-NH2; linker N-5 via X1)"
reported_endpoint = "Kb"
unit_abbreviation = "nM"
recorded_measurement = 1.88

[[record]]
compound = "COc1ccc(C[C@@H]2NC(=O)CC(C)(C)SSC[C@@H](C(=O)N[C@@H](CCCNC(=N)N)C(N)=O)NC(=O)[C@H](CC(N)=O)NC(=O)[C@H](CCC(N)=O)NC(=O)[C@H](Cc3ccccc3)NC2=O)cc1 [A] (Y(Me)FQNCR-NH2; linker N-5 via X1)"
reported_endpoint = "Kb"
unit_abbreviation = "nM"
recorded_measurement = 32.6


---

# Kb values compiled below
# tested on: V2-vasopressin receptors (Sus scrofa, UniProt P32307)
# Construct: Medullary pig kidney tissue; from tissue; host or cells: pig (hog) kidney medulla
# Sequence (P32307 whole entry): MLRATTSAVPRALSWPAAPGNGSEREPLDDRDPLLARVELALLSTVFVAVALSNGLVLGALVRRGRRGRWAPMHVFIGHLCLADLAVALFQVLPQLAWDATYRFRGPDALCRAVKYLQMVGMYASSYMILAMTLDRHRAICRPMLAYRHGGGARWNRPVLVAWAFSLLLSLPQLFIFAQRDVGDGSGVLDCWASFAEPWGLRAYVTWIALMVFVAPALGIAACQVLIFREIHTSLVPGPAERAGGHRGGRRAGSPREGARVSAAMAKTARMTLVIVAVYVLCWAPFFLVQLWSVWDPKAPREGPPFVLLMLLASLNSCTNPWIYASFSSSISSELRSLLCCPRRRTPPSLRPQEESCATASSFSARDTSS
# protocol: inhibition of 3H-LVP binding, medullary pig kidney tissue
Numbered stars: 1 amine (or outer) side, 2 acyl side, 3 side chain; on linkers, the order of the positions; unused ones are H or OH. Bridge positions count the residues as written; N and C are the ends. Square brackets hold non-standard residues; d marks the D form. Peptide text beside a SMILES is read from it. X2 = O=C(CC1(S[*:2])CCCCC1)[*:1]; X1 = CC(C)(CC(=O)[*:1])S[*:2]; Mpa = O=C(O)CCS
reported endpoint: Kb (nM)

[[record]]
molecule = "CCOc1ccc(C[C@H]2NC(=O)CCSSC[C@@H](C(=O)N[C@@H](CCCNC(=N)N)C(N)=O)NC(=O)[C@H](CC(N)=O)NC(=O)[C@H]([C@@H](C)O)NC(=O)[C@H]([C@@H](C)CC)NC2=O)cc1 [D] ([Mpa][dY](Et)ITNCR-NH2; disulfide 1-6)"
reported_endpoint = "Kb"
recorded_measurement = 1600

[[record]]
molecule = "COc1ccc(C[C@@H]2NC(=O)CC(C)(C)SSC[C@@H](C(=O)N3CCC[C@H]3C(=O)N[C@@H](CCCNC(=N)N)C(=O)NCC(N)=O)NC(=O)[C@H](CC(N)=O)NC(=O)[C@H](CCC(N)=O)NC(=O)[C@H](Cc3ccccc3)NC2=O)cc1 [F] (Y(Me)FQNCPRG-NH2; linker N-5 via X1)"
reported_endpoint = "Kb"
recorded_measurement = 70

[[record]]
molecule = "COc1ccc(C[C@@H]2NC(=O)CC3(CCCCC3)SSC[C@@H](C(=O)N3CCC[C@H]3C(=O)N[C@@H](CCCN=C(N)N)C(=O)NCC(N)=O)NC(=O)[C@H](CC(N)=O)NC(=O)[C@H](CCC(N)=O)NC(=O)[C@H](Cc3ccccc3)NC2=O)cc1 [G] (Y(Me)FQNCPRG-NH2; linker N-5 via X2)"
reported_endpoint = "Kb"
recorded_measurement = 369

